This collection of values is drawn from the supplement of paper PMC9112550.

System: Escherichia coli TOP10
procedure.text: shrunken log2 fold change of peptide-encoding DNA abundance (4.5 h post-induction vs induction); higher = less antimicrobial activity (less host growth inhibition)
run.conditions: time post-induction: 4.5 h; library: site-saturation at positions 5, 18, 19, 20
Catalogue of sequences with associated shrunken log2 fold change

> print(dat)
            input.sequence  measured.value
1  RRIRDRPPRLPRPRPRPDPGPRP           0.506
2  RRIRNRPPRLPRPRPRPCTTPRP          -0.213
3  RRIRVRPPRLPRPRPRPQVSPRP          0.0417

Q) Identify shrunken log2 fold change associated with the sequence RRIRPRPPRLPRPRPRPPWTPRP
A) 0.267

Q) Identify shrunken log2 fold change associated with the sequence RRIRKRPPRLPRPRPRPTTQPRP
A) 0.196

Q) Identify shrunken log2 fold change associated with the sequence RRIRMRPPRLPRPRPRPSTAPRP
A) 0.788

* * *

Catalogue of sequences with associated shrunken log2 fold change
Tested on: Escherichia coli TOP10
procedure.text: shrunken log2 fold change of peptide-encoding DNA abundance (4.5 h post-induction vs induction); higher = less antimicrobial activity (less host growth inhibition)
run.conditions: time post-induction: 4.5 h; library: site-saturation at positions 5, 18, 19, 20
Give the figure by itself; no unit, no explanation.

Reference set (4 entries):
> print(dat)
            input.sequence  measured.value
1  RRIRRRPPRLPRPRPRPVEMPRP           0.483
2  RRIRNRPPRLPRPRPRPVNGPRP          -0.372
3  RRIRIRPPRLPRPRPRPWEFPRP       -0.000856
4  RRIRYRPPRLPRPRPRPVGAPRP           0.252

Q) Identify shrunken log2 fold change associated with the sequence RRIRLRPPRLPRPRPRPTAHPRP
A) 0.0391

Q) Identify shrunken log2 fold change associated with the sequence RRIRGRPPRLPRPRPRPNCEPRP
A) 0.376

Q) Identify shrunken log2 fold change associated with the sequence RRIRNRPPRLPRPRPRPTCEPRP
A) -0.0176

Q) Identify shrunken log2 fold change associated with the sequence RRIRIRPPRLPRPRPRPIIAPRP
A) -0.389

Q) Identify shrunken log2 fold change associated with the sequence RRIRWRPPRLPRPRPRPNECPRP
A) -0.437

* * *

Tested on: Escherichia coli TOP10
procedure.text: shrunken log2 fold change of peptide-encoding DNA abundance (4.5 h post-induction vs induction); higher = less antimicrobial activity (less host growth inhibition)
run.conditions: time post-induction: 4.5 h; library: site-saturation at positions 5, 18, 19, 20
Catalogue of sequences with associated shrunken log2 fold change
Give the figure by itself; no unit, no explanation.

Reference set (5 entries):
> print(dat)
            input.sequence             property.label  measured.value
1  RRIRRRPPRLPRPRPRPHWAPRP  shrunken log2 fold change           -0.17
2  RRIRQRPPRLPRPRPRPEAQPRP  shrunken log2 fold change           0.285
3  RRIRKRPPRLPRPRPRPKQRPRP  shrunken log2 fold change           0.393
4  RRIRVRPPRLPRPRPRPMPNPRP  shrunken log2 fold change          -0.116
5  RRIRYRPPRLPRPRPRPHIFPRP  shrunken log2 fold change          -0.255

Q) Identify shrunken log2 fold change associated with the sequence RRIRVRPPRLPRPRPRPRQPPRP
A) 0.284

Q) Identify shrunken log2 fold change associated with the sequence RRIRHRPPRLPRPRPRPSMIPRP
A) -0.23

* * *

System: Escherichia coli TOP10
procedure.text: shrunken log2 fold change of peptide-encoding DNA abundance (4.5 h post-induction vs induction); higher = less antimicrobial activity (less host growth inhibition)
run.conditions: time post-induction: 4.5 h; library: site-saturation at positions 5, 18, 19, 20
Rule: shrunken log2 fold change under 0.02 gives Not fulfilled, otherwise Fulfilled.

Example entries begin here.
> print(dat)
            input.sequence  discrete.label
1  RRIRERPPRLPRPRPRPHVCPRP   Not fulfilled
2  RRIRERPPRLPRPRPRPIMMPRP   Not fulfilled
3  RRIRKRPPRLPRPRPRPMQFPRP       Fulfilled
4  RRIRERPPRLPRPRPRPEQWPRP       Fulfilled
5  RRIRMRPPRLPRPRPRPEFTPRP       Fulfilled

Q) Reported shrunken log2 fold change reaches at least 0.02 for RRIRYRPPRLPRPRPRPDAYPRP ?
A) Not fulfilled

Q) Reported shrunken log2 fold change reaches at least 0.02 for RRIRERPPRLPRPRPRPGTRPRP ?
A) Not fulfilled

Q) Reported shrunken log2 fold change reaches at least 0.02 for RRIRNRPPRLPRPRPRPNSMPRP ?
A) Not fulfilled

Q) Reported shrunken log2 fold change reaches at least 0.02 for RRIRGRPPRLPRPRPRPHWKPRP ?
A) Fulfilled

Q) Reported shrunken log2 fold change reaches at least 0.02 for RRIRPRPPRLPRPRPRPSSHPRP ?
A) Not fulfilled

Q) Reported shrunken log2 fold change reaches at least 0.02 for RRIRHRPPRLPRPRPRPTRCPRP ?
A) Not fulfilled

Q) Reported shrunken log2 fold change reaches at least 0.02 for RRIRMRPPRLPRPRPRPYTMPRP ?
A) Not fulfilled

Q) Reported shrunken log2 fold change reaches at least 0.02 for RRIRCRPPRLPRPRPRPDFEPRP ?
A) Not fulfilled

Q) Reported shrunken log2 fold change reaches at least 0.02 for RRIRIRPPRLPRPRPRPSHPPRP ?
A) Not fulfilled

* * *

Tested on: Escherichia coli TOP10
procedure.text: shrunken log2 fold change of peptide-encoding DNA abundance (4.5 h post-induction vs induction); higher = less antimicrobial activity (less host growth inhibition)
run.conditions: time post-induction: 4.5 h; library: site-saturation at positions 5, 18, 19, 20
property.label: shrunken log2 fold change
Give the figure by itself; no unit, no explanation.

> print(dat)
            input.sequence  measured.value
1  RRIRQRPPRLPRPRPRPQRGPRP           0.235
2  RRIRKRPPRLPRPRPRPKGKPRP           0.302
3  RRIRCRPPRLPRPRPRPVYCPRP          -0.755
4  RRIRRRPPRLPRPRPRPWKKPRP         -0.0288
5  RRIRTRPPRLPRPRPRPYFAPRP          -0.193

Q) Identify shrunken log2 fold change associated with the sequence RRIRYRPPRLPRPRPRPLWLPRP
A) 0.0113

Q) Identify shrunken log2 fold change associated with the sequence RRIRSRPPRLPRPRPRPCQSPRP
A) -0.01

Q) Identify shrunken log2 fold change associated with the sequence RRIRYRPPRLPRPRPRPVQTPRP
A) -0.00992

* * *

Test system: Escherichia coli TOP10
procedure.text: shrunken log2 fold change of peptide-encoding DNA abundance (4.5 h post-induction vs induction); higher = less antimicrobial activity (less host growth inhibition)
run.conditions: time post-induction: 4.5 h; library: site-saturation at positions 5, 18, 19, 20
property.label: shrunken log2 fold change

Reference set (2 entries):
> print(dat)
            input.sequence  measured.value
1  RRIRARPPRLPRPRPRPTAPPRP             0.8
2  RRIRSRPPRLPRPRPRPWDYPRP          0.0318

Q) Report shrunken log2 fold change on Escherichia coli TOP10 for this entry: RRIRARPPRLPRPRPRPKIVPRP
A) -0.0715

Q) Report shrunken log2 fold change on Escherichia coli TOP10 for this entry: RRIRTRPPRLPRPRPRPFIKPRP
A) -0.57

* * *

System: Escherichia coli TOP10
procedure.text: shrunken log2 fold change of peptide-encoding DNA abundance (4.5 h post-induction vs induction); higher = less antimicrobial activity (less host growth inhibition)
run.conditions: time post-induction: 4.5 h; library: site-saturation at positions 5, 18, 19, 20
Rule: shrunken log2 fold change under -0.05 gives f, otherwise t.

> print(dat)
            input.sequence  discrete.label
1  RRIRIRPPRLPRPRPRPDRPPRP               f
2  RRIRFRPPRLPRPRPRPIFMPRP               f
3  RRIRKRPPRLPRPRPRPFMNPRP               t
4  RRIRNRPPRLPRPRPRPLNPPRP               f
5  RRIRVRPPRLPRPRPRPTIWPRP               t

Q) Reported shrunken log2 fold change reaches at least -0.05 for RRIRERPPRLPRPRPRPGRMPRP ?
A) t

Q) Reported shrunken log2 fold change reaches at least -0.05 for RRIRHRPPRLPRPRPRPACPPRP ?
A) f

Q) Reported shrunken log2 fold change reaches at least -0.05 for RRIRTRPPRLPRPRPRPWTAPRP ?
A) f

* * *

System: Escherichia coli TOP10;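 also: peptides expressed intracellularly from a pBAD plasmid library in pooled LB shake-flask culture, induced with 0.3% L-arabinose, DNA abundance read by NGS, three biological replicates, DESeq2 with apeglm shrinkage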
procedure.text: shrunken log2 fold change of peptide-encoding DNA abundance (4.5 h post-induction vs induction); higher = less antimicrobial activity (less host growth inhibition)
run.conditions: time post-induction: 4.5 h; library: site-saturation at positions 5, 18, 19, 20
property.label: shrunken log2 fold change
Give the figure by itself; no unit, no explanation.

> print(dat)
            input.sequence             property.label  measured.value
1  RRIRQRPPRLPRPRPRPPIPPRP  shrunken log2 fold change         -0.0174
2  RRIRIRPPRLPRPRPRPPFSPRP  shrunken log2 fold change          -0.245
3  RRIRTRPPRLPRPRPRPVYRPRP  shrunken log2 fold change          -0.361
4  RRIRHRPPRLPRPRPRPCVWPRP  shrunken log2 fold change          0.0245

Q) Identify shrunken log2 fold change associated with the sequence RRIRYRPPRLPRPRPRPNCYPRP
A) -0.0166

Q) Identify shrunken log2 fold change associated with the sequence RRIRQRPPRLPRPRPRPNRYPRP
A) -0.0216

Q) Identify shrunken log2 fold change associated with the sequence RRIRMRPPRLPRPRPRPLEYPRP
A) 0.0611

Q) Identify shrunken log2 fold change associated with the sequence RRIRMRPPRLPRPRPRPAYTPRP
A) -0.0493
